Target: human factor Xa (Homo sapiens)
Construct: purchased Enzyme Research Laboratories
Sequence (P00742 235-488 limits assumed): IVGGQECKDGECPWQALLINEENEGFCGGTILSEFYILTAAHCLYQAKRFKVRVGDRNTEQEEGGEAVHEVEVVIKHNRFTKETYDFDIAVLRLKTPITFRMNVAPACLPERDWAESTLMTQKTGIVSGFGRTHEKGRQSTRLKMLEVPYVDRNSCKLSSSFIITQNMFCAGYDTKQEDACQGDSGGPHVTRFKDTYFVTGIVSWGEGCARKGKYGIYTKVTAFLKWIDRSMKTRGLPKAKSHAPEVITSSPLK
Sequence (P00742 41-179 partner limits assumed): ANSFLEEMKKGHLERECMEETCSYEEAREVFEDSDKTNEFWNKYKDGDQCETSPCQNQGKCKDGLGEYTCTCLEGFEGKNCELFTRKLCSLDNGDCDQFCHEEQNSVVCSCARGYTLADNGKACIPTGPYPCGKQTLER
Experiment: Chromogenic peptide substrate (S-2222) assay, inhibition of coagulation factor Xa
Assay type: biochemical
Conditions: apparent dissociation constant by Cheng-Prusoff from IC50; human factor Xa 3 nM, substrate S-2222, HNPT buffer pH 7.8, room temperature
Method: Factor Xa activity was measured spectrophotometrically in microtiter plates in a final volume of 150 μl using the following conditions: Inhibition of human factor Xa (Enzyme Research Laboratories) was tested at an enzyme concentration of 3 nM using the chromogenic substrate S-2222 (Chromogenix AB, Mölndal, Sweden) at 200 nM. […] The velocity of the reaction was determined by the autoreader from the slope of the linear regression fit to 7 time points (1 minute). […]
# key: entry, value: Ki
Please reply with the bare figure in µM and do not write the unit itself.

In the examples that follow, each entry is paired with its recorded Ki.
                                   compound                   tested_system  measurement_kind  units  recorded_number
0  CC(C)(C)OC(=O)N1C[C@@H](NC(=O)c2ccc(Cl)s2)C[C@H]1C(=O)Nc1ccc(-n2ccncc2=O)cc1F  human factor Xa (Homo sapiens)                Ki     µM            0.065
1  O=C(N[C@@H]1CN[C@H](C(=O)Nc2ccc(-n3ccccc3=O)cc2F)C1)c1ccc(Cl)s1  human factor Xa (Homo sapiens)                Ki     µM            0.023
2  N#CCN1C[C@@H](NC(=O)c2ccc(Cl)s2)C[C@H]1C(=O)Nc1ccc(-n2ccccc2=O)cc1F  human factor Xa (Homo sapiens)                Ki     µM            0.046

Now examine the next entry.
Qu. What value of Ki has been reported for the following compound? O=C(N[C@H]1CC(C(=O)Nc2ccc(-n3ccccc3=O)cc2F)N(CCC(F)(F)F)C1)c1ccc(Cl)s1 (mixture of isomers)
Ans. 0.042
